Overview of reported inhibition at 10 µM across a group of molecules:
# targetOrSystem: recombinant E. coli BioA (Escherichia coli)
# Sequence (P12995 whole entry): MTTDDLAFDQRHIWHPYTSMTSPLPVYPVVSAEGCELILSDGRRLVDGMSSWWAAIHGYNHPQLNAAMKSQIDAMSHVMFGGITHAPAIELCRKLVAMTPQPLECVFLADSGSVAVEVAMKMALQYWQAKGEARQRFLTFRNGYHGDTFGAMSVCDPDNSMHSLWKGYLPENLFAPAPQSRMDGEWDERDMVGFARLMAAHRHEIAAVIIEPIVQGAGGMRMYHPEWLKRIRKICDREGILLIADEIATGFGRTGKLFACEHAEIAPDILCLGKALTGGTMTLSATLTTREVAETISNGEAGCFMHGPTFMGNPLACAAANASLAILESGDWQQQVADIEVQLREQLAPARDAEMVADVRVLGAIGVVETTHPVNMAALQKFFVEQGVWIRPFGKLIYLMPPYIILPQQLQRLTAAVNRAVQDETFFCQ
# assay: BioA inhibition through a feeding assay of a bioA auxotroph
# Format: biochemical
# testParameters: 10 μM; relative to DMSO control
valueType: inhibition at 10 µM (%)

molecule="NNC(=O)CSc1ccccc1O [Compound 1f, 2-(2-hydroxyphenylthio)acetohydrazide]" unitspec=% recordednumber=70
molecule="COc1ccccc1SCC(=O)NN [Compound 1i, 2-(2-methoxyphenylthio)acetohydrazide]" unitspec=% recordednumber=100
molecule="NNC(=O)CSc1ccc([N+](=O)[O-])cc1 [Compound 1b, 2-(4-nitrophenylthio)acetohydrazide]" unitspec=% recordednumber=100
molecule=CC(=O)CSc1ccccc1[N+](=O)[O-] unitspec=% recordednumber=0
molecule="NNC(=O)CSc1ccccc1Cl [Compound 1e, 2-(2-chlorophenylthio) acetohydrazide]" unitspec=% recordednumber=100
molecule="NNC(=O)CSc1ccccc1N [Compound 1g, 2-(2-aminophenylthio)acetohydrazide]" unitspec=% recordednumber=100
